ASSAY READOUT: melting point (°C)

Ask: // lookup melting point for NC(=O)NN=Cc1ccccc1
Reply: 231

1: CCOC(=O)CCCC(=O)OCC
2: CCOc1ccc(Cc2nc(C)cc3cc(OC)c(OC)cc23)cc1OC
3: CCSCCO
4: Cc1nc(C(F)(F)F)c(C(=O)Nc2c(Br)cc(OC(F)(F)F)cc2Br)s1
5: CC(=O)OC1CCCc2c(C)ccc(C)c21 (centres undefined)
Ask: // sort entries: melting point, high to low Write the labels out in the order the request specifies.
Reply: 4, 2, 5, 1, 3
(4: 178 °C, 2: 124 °C, 5: 52 °C, 1: -24.1 °C, 3: -100 °C)

A: COc1ccccc1OCC(N)=O
B: CSc1ccc(CO)cc1
Ask: // select label with min value of measured melting point from [ A , B ] Return value: the label identifying the chosen record.
Reply: B
(B: 42 °C, A: 142 °C)

---

ASSAY READOUT: melting point (°C)

Solved entries (count: 5):
Ask: // lookup melting point for CCOc1ccc(C(=O)OC)cc1
Reply: 36

Ask: // lookup melting point for Brc1cncc(-c2nnn[nH]2)c1
Reply: 226

Ask: // lookup melting point for CC(C)CCSCCC(C)C
Reply: -74.6

Ask: // lookup melting point for CC(C)(C=O)C(c1ccccc1)C(C(=O)O)C(=O)O (stereo not drawn)
Reply: 153

Ask: // lookup melting point for C#CC1(O)CCC2C3CCC4CC(O)CCC4(C)C3CCC21C (stereo not drawn)
Reply: 257

1: CC(C)C=C1NC(c2ccccc2)OC1=O (stereo not drawn)
2: C[N+](C)(C)CCOP(=O)([O-])OCC(O)CO (stereo not drawn)
Ask: // select label with min value of measured melting point from [ 1 , 2 ] Return value: the label identifying the chosen record.
Reply: 1

a: COc1ccc(Br)cc1C#N
b: CC1(C)OC(=O)C(=Cc2ccccc2F)C(=O)O1
Ask: Identify the entry with the larger melting point. Options: a and b Return value: the label identifying the chosen record.
Reply: b
(b: 142 °C, a: 91 °C)

---

ASSAY READOUT: melting point (°C)

Solved entries (count: 3):
Ask: // lookup melting point for N#C/C(=C/c1cccnc1)c1nc(-c2ccccc2)cs1
Reply: 164

Ask: // lookup melting point for C#CC1(O)CC[C@@]2(C)C(CC[C@@H]3[C@@H]2CC[C@@]2(C)[C@H]3CC[C@]2(O)C#C)C1 (stereo partly specified)
Reply: 147

Ask: // lookup melting point for CC(=O)OCC1=CC2CC(=O)C3=COC(OC4OC(CO)C(O)C(O)C4O)C1C32 (stereo unspecified)
Reply: 128

1: O=C(Nc1ccccc1)c1cccc2c(Br)cccc12
2: COc1ccc(NC(=O)C(C)=O)cc1
Ask: // select label with min value of measured melting point from [ 1 , 2 ] Return value: the label identifying the chosen record.
Reply: 2
(2: 127 °C, 1: 217 °C)

---

ASSAY READOUT: melting point (°C)

Ask: // lookup melting point for O=C(O)C(O)n1ccnc1 (configuration not stated)
Reply: 275

Ask: // lookup melting point for COC(=O)c1cc([N+](=O)[O-])ccc1Br
Reply: 81

Ask: // lookup melting point for CC1(C)OC(=O)C2CCCCC21 (configuration not stated)
Reply: 80

I: CC(=O)c1cc(F)cc(F)c1
II: O=C(O)COc1ccc(I)cc1
Ask: Identify the entry with the larger melting point. Options: I and II Return value: the label identifying the chosen record.
Reply: II
(II: 157 °C, I: 39 °C)

I: Oc1ccccc1S
II: N#Cc1ccc(C(c2ccc(C#N)cc2)n2cncn2)cc1
Ask: Identify the entry with the larger melting point. Options: I and II Return value: the label identifying the chosen record.
Reply: II
(II: 181 °C, I: 20 °C)
